target: M2 muscarinic receptor (Homo sapiens, UniProt P08172); construct: expressed in transfected cells; host or cells: CHO (M2-CHO); assay: Functional mobilization of intracellular calcium (FLIPR), M2-CHO cells; assay type: cell-based; settings: 100% efficacy = maximum response obtained with the Carbachol control
Sequence (P08172 whole entry): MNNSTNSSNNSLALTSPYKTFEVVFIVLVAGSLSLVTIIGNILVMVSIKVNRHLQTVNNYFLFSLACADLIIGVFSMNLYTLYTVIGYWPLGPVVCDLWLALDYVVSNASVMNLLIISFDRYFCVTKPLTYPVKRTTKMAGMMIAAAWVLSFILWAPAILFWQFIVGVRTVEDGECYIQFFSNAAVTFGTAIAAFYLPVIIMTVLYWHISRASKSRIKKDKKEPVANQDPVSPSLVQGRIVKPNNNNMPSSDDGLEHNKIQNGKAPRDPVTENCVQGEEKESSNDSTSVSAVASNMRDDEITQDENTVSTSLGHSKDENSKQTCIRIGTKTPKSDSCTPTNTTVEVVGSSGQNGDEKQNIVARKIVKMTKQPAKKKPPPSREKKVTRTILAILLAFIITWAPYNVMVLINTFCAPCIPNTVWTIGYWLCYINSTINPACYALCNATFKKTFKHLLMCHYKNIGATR
ASSAY READOUT: Emax

Would you please look over these solved cases?
> print(dat)
                                   compound                                       tgt  assay.readout      result
1  CCOC(=O)N1CCC(CN2CCC(c3cc(-c4ccc(C(=O)NC)cc4)ccc3OC)CC2)CC1  M2 muscarinic receptor (Homo sapiens, UniProt P08172)           Emax       < 25%
2  COc1ccc(-c2ccc(C(C)=O)cc2)cc1C1CCN([C@H]2C[C@H]3CC[C@H]2C3)CC1  M2 muscarinic receptor (Homo sapiens, UniProt P08172)           Emax       < 25%
3         COc1ccc(Cl)cc1C1CCN(C2CCCCCC2)CC1  M2 muscarinic receptor (Homo sapiens, UniProt P08172)           Emax  25 to 100%

Return the recorded Emax value; entry: `COc1ccc(-c2cccc(F)c2)cc1C1CCN([C@H]2C[C@H]3CC[C@H]2C3)CC1`
< 25%

Return the recorded Emax value; entry: `COc1ccc(-c2ccc(C(C)(C)C#N)cc2)cc1C1CCN(C2CCCCC2)CC1`
25 to 100%

Return the recorded Emax value; entry: `CCOC(=O)N1CCC(CN2CCC(OC)(c3cc(F)ccc3OC)CC2)CC1`
25 to 100%

Return the recorded Emax value; entry: `COc1ccccc1C1CCN(CC2CCOCC2)CC1`
< 25%

Return the recorded Emax value; entry: `COc1ccc(C(=O)c2ccsc2)cc1C1CCN([C@H]2C[C@H]3CC[C@H]2C3)CC1`
< 25%

Return the recorded Emax value; entry: Oc1ccccc1C1CCN(C2CC3CC[C@H]2C3)CC1 (stereo in doubt)
< 25%

Return the recorded Emax value; entry: `COc1ccc(-c2ccc(C(=O)N3CCCCC3)cc2)cc1C1CCN([C@H]2C[C@H]3CC[C@H]2C3)CC1`
< 25%

Return the recorded Emax value; entry: `FC(F)(F)Oc1ccccc1C1CCN([C@H]2C[C@H]3CC[C@H]2C3)CC1`
< 25%
